Biological target: hP2X3 (Homo sapiens)
Construct: expressed in transfected cells
Sequence (P56373 whole entry): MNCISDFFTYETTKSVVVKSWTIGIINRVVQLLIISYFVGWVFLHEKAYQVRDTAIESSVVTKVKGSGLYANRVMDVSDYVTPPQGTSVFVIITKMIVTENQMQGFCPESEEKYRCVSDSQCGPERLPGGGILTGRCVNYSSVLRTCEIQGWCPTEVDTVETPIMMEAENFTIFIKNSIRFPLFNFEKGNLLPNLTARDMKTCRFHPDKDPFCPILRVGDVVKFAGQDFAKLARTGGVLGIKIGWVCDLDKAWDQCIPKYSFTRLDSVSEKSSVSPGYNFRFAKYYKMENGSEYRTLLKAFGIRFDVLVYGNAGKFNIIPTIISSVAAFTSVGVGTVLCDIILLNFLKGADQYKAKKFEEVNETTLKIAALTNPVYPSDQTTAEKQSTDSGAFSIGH
Test: Calcium uptake assay (Ca influx), P2X antagonist assay, P2X3 homomer
Format: cell-based
Conditions: inhibition of agonist-induced calcium influx
pIC50: −log10 of the molar value.

compound	pIC50
COc1ncc(-c2cc(C(=O)NCc3ccc(C)nc3)cc(-c3ccc(C)cc3)c2)cn1 [Compound 12]	6.54
Cc1ccc(-c2cc(C(=O)NCc3ccc(C)nc3)cc(-c3cccc(F)c3F)c2)nc1 [Compound 33]	6.91
Cc1ccc(-c2cc(C(=O)N[C@H](C)CN3CCOCC3)cc(-c3c(F)cccc3C(F)(F)F)c2)nc1 [Compound 83]	7.14
Cc1ccc(-c2cc(C(=O)N[C@@H](C)CO)cc(-c3cnccc3C#N)c2)nc1 [Compound 84]	7.99

---

pIC50 for assorted compounds
Biological target: hP2X2/3H (Homo sapiens, UniProt P56373+Q9UBL9)
Sequence (P56373 whole entry): as above
Sequence (Q9UBL9 whole entry): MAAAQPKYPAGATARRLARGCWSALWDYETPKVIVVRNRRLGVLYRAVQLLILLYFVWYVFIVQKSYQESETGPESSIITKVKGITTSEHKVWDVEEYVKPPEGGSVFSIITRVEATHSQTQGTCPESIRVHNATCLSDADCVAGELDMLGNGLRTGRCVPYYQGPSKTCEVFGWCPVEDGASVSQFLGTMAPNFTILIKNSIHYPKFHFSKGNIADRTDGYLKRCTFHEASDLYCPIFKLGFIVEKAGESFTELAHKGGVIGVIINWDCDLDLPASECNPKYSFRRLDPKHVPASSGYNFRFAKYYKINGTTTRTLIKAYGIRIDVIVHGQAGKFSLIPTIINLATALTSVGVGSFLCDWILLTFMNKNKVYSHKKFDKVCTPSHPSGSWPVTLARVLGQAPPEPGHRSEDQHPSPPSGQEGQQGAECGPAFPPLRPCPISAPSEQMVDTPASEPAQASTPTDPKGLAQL
Test: Calcium uptake assay (Ca influx), P2X antagonist assay, P2X2/3 heteromer
Details: inhibition of agonist-induced calcium influx
Protocol: Human P2X3 (Accession no. NM_002559), P2X2 (Accession no. NM_170682) and Rat P2X3 (Accession no. NM_031075) and P2X2 (Accession no. NM_053656) are cloned into a mammalian expression vector (e.g., pcDNAS/TO or pcDNA3 Invitrogen). […] Functional activity of compounds at the P2X receptor is determined by measuring their ability to inhibit agonist-induced calcium influx. […] At the start of each screening day, the agonist EC50 is determined. […]
pIC50: −log10 of the molar value.

compound	pIC50
Cc1ccc(-c2cc(C(=O)N[C@H](C)c3cnc(C)nc3)cc(-c3cccc(F)c3F)c2)nc1 [Compound 36]	7.48
Cc1ccc(-c2cc(C(=O)NCc3cnc(C)nc3)cc(N3CCCC3=O)c2)cc1 [Compound 50]	6.37
Cc1ccc(-c2cc(C(=O)N[C@H](C)CN3CCOCC3)cc(-c3cc(C)ccc3C#N)c2)nc1 [Compound 73]	6.47
Cc1ccc(-c2cc(C(=O)NCc3ccc(C)nc3)cc(-c3ccccc3CO)c2)cc1 [Compound 8]	6.94
Cc1ccc(-c2cc(C(=O)N[C@@H](C)CO)cc(N3CCCC3=O)c2)cc1 [Compound 60]	5.06
Cc1ccc(-c2cc(C(=O)NCc3ccc(C)nc3)cc(-c3ccc(C)cc3C#N)c2)nc1 [Compound 35]	7.45
Cc1ccc(-c2cc(C(=O)NCc3ccc(C)nc3)cc(-c3cccc(N(C)C)c3)c2)cc1 [Compound 23]	5.38
Cc1ccc(-c2cc(C(=O)NCc3ccc(C)nc3)cc(-c3cccc(F)c3F)c2)nc1 [Compound 33]	7.01
COc1ccccc1-c1cc(C(=O)NCc2ccc(C)nc2)cc(-c2ccc(C)cn2)c1 [Compound 18]	7.15
COc1ccccc1-c1cc(C(=O)NCc2ccc(C)nc2)cc(-c2ccc(C)cc2)c1 [Compound 4]	5.97
Cc1ccc(-c2cc(C(=O)NCc3ccc(C)nc3)cc(-c3ccccn3)c2)nc1 [Compound 32]	6.00
Cc1ccc(-c2cc(C(=O)NCc3ccc(C)nc3)cc(-c3ccccc3C#N)c2)cc1 [Compound 27]	6.85
Cc1ccc(-c2cc(C(=O)NCc3cnc(C)nc3)cc(-c3ncccn3)c2)cc1 [Compound 2]	6.39
Cc1ncc([C@@H](C)NC(=O)c2cc(-c3ccccn3)cc(-c3ccccc3CO)c2)cn1 [Compound 44]	6.53
Cc1ccc(-c2cc(C(=O)NCc3ccc(C)nc3)cc(-c3ccccc3OC(F)(F)F)c2)nc1 [Compound 14]	6.76
Cc1ccc(-c2cc(C(=O)N[C@H](C)c3cnc(C)nc3)cc(-c3ccccc3C(=O)N(C)C)c2)nc1 [Compound 54]	6.29
Cc1ccc(-c2cc(C(=O)NCc3ccc(C)nc3)cc(-c3ccccc3F)c2)nc1 [Compound 15]	7.26
Cc1ccc(-c2cc(C(=O)N[C@H](C)c3cnc(C)nc3)cc(-c3ccccc3CO)c2)nc1 [Compound 34]	7.74
Cc1ccc(-c2cc(C(=O)NCc3ccc(C)nc3)cc(-c3ccccc3CN(C)C)c2)nc1 [Compound 28]	7.08
Cc1ccc(-c2cc(C(=O)NCc3cnc(C)nc3)cc(-c3ccc(C)cn3)c2)cc1 [Compound 1]	7.06
Cc1ccc(-c2cc(C(=O)N[C@H](C)CN3CCOCC3)cc(-c3cc(C(F)(F)F)ccc3C#N)c2)nc1 [Compound 80]	6.66
Cc1ccc(-c2cc(C(=O)NCc3ccc(C)nc3)cc(N3CCCC3=O)c2)cc1 [Compound 49]	6.69
Cc1ccc(-c2cc(C(=O)N[C@H](C)c3cnc(C)nc3)cc(-c3ccccc3C#N)c2)nc1 [Compound 31]	7.75
Cc1ccc(-c2cc(C(=O)N[C@H](C)c3cnc(C)nc3)cc(-c3ccccc3C(N)=O)c2)nc1 [Compound 47]	7.43
Cc1ccc(-c2cc(C(=O)N[C@H](C)c3cnc(C)nc3)cc(N3CCCC3=O)c2)cc1 [Compound 48]	7.48
Cc1ccc(-c2cc(C(=O)NCc3cnc(C)nc3)cc(N3CCCCC3=O)c2)cc1 [Compound 38]	6.65
Cc1ccc(-c2cc(C(=O)NCc3ccc(C)nc3)cc(-c3cccnc3)c2)nc1 [Compound 20]	7.15

---

Molecular target: hP2X3 (Homo sapiens)
Experiment: Calcium uptake assay (Ca influx), P2X antagonist assay, P2X3 homomer
Conditions: inhibition of agonist-induced calcium influx
For each record, check the reported IC50: if it is below 60 nM write T, else write F.

Cc1ccc(-c2cc(C(=O)NCc3ccc(C)nc3)cc(N3CCNCC3=O)c2)cc1 F
Cc1ccc(-c2cc(C(=O)NCc3ccc(C)nc3)cc(-c3ccccc3C#N)c2)nc1 T
Cc1ccc(-c2cc(C(=O)NCc3ccc(C)nc3)cc(N3CCN(C)CC3=O)c2)cc1 F
Cc1ccc(-c2cc(C(=O)N[C@H](C)c3cnc(C)nc3)cc(-c3ccccc3C(=O)N(C)C)c2)nc1 T
Cc1ccc(-c2cc(C(=O)N[C@H](C)c3ccc(C)nc3)cc(N3CCCC3=O)c2)cc1 T

Value source: patent US9133122B2
